# tgt: Amine oxidase [flavin-containing] A (Rattus norvegicus, UniProt P21396)
# Sequence (P21396 whole entry): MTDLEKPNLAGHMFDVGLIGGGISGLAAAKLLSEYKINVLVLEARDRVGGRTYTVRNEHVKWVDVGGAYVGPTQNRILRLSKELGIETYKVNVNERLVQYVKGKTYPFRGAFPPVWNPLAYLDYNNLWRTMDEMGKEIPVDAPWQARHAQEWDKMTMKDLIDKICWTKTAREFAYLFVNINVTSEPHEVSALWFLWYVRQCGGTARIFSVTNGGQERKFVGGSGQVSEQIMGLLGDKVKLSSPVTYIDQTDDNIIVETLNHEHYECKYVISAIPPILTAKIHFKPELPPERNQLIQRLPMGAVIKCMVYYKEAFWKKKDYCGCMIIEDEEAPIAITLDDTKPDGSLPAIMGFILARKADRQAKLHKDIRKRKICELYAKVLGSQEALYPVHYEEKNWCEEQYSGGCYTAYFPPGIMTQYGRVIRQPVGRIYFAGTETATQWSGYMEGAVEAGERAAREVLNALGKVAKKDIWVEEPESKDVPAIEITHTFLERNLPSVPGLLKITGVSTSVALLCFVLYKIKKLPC
# assay summary: Inhibition of MAOA in rat brain mitochondria at 10 uM
// Not met strictly below 10% in inhibition at 10 µM; Met otherwise

Q: Does inhibition at 10 µM meet or surpass 10% for Nc1cccc(-c2nnc3c(n2)-c2ccccc2C3=O)c1 ?
Ans: Met

Q: Is reported inhibition at 10 µM greater than or equal to 10% here: O=C1c2ccccc2-c2nc(-c3ccccc3)nnc21
Ans: Met

Q: Please indicate if the recorded inhibition at 10 µM for O=C1c2ccccc2-c2nnc(COc3ccc(F)cc3)cc21 meets or exceeds 10%.
Ans: Met

Q: inhibition at 10 µM >= 10% for O=C1c2ccccc2-c2nnc(COc3ccc(C(F)(F)F)cc3)cc21 ?
Ans: Not met

Q: Evaluate O=C1c2ccccc2-c2nnc(-c3cccc([N+](=O)[O-])c3)nc21 : inhibition at 10 µM at minimum 10%?
Ans: Not met

Q: Say whether O=C1c2ccccc2-c2nc(-c3cccc([N+](=O)[O-])c3)nnc21 shows inhibition at 10 µM of 10% or more.
Ans: Met

Please turn your attention to the following entry.
Q: Reported inhibition at 10 µM reaches at least 10% for O=C1c2ccccc2-c2nnc(COc3ccccc3)cc21 ?
Ans: Not met
